- TEST TARGET: D(1A) dopamine receptor (Homo sapiens)
- ASSAY NOTES: Allosteric Agonists of the Human D1 Dopamine Receptor: qHTS; note: 0% is about no effect
- CONDITIONS USED: HEK293 T-REx D1 cells, calcium flux, agonist mode; at 2 µM; hits give high values
In all, about 360,000 compounds went through this assay and about 3,700 (1%) were called active. Many of the other results were omitted from the sample, so actives are more common in it than they were.

MOLECULE: COc1ccccc1-c1noc(CSc2nnc(-c3ccccc3)n2-c2ccc(C)c(C)c2)n1
activation (%): 0.886
--
MOLECULE: CCc1ccccc1NC(=O)N1CCN(C(=O)c2nsc3ccccc23)CC1
activation (%): 2.7
--
MOLECULE: CCn1cc(C(=O)NCc2ccccc2)c(=O)c2cc(S(=O)(=O)N3CCCCC3)ccc21
activation (%): 1.41
--
MOLECULE: COc1ccc(C2COC(=O)C2=N)c(NC(=O)c2ccccc2)c1 (configuration not stated)
activation (%): 0.266
--
MOLECULE: Cc1ccc2nc(COc3cccc(NC(=O)Nc4ccc(C)c(Cl)c4)c3)cc(=O)n2c1
activation (%): -0.44
--
MOLECULE: CCOC(=O)c1c(NC(C)=O)c2c3c(sc2n1Cc1c(C)cc(C)cc1C)CCCC3
activation (%): 1.79
--
MOLECULE: CC(=O)c1c(Nc2ccccc2)sc(C(=O)c2ccccc2)c1C
activation (%): 5.07
--
MOLECULE: O=C(NCc1ccc2c(c1)CCN2C(=O)c1ccccc1)Nc1cc(F)ccc1F
activation (%): 2.32
--
MOLECULE: Cc1ccccc1OCC(=O)Nc1c(C(=O)Nc2ccccc2F)oc2ccccc12
activation (%): 20.7
--
MOLECULE: COCCN(Cc1ccccc1)C(=O)Cc1ccc(S(=O)(=O)N2CCOCC2)s1
activation (%): 134
--
MOLECULE: COC(=O)c1ccccc1NC(=O)c1ccc(C#N)cc1
activation (%): 1.68
--
MOLECULE: CO/N=C(/CS(=O)(=O)c1ccc(Br)cc1)c1ccc(OC)cc1
activation (%): 0.348
--
MOLECULE: COc1ccc(S(=O)(=O)c2c(Nc3cccc(Cl)c3)sc(C(=O)c3ccccc3)c2N)cc1
activation (%): 75.8
--
MOLECULE: CCOC(=O)c1cc(NC(=O)c2ccc(Cl)cc2)c(=O)oc1-c1ccccc1
activation (%): 3.05
--
MOLECULE: CCN1CCN(CCNC(=O)c2ccc(/C=C3/Sc4ccccc4N(Cc4cccc(C)c4)C3=O)cc2)CC1
activation (%): 48.6
--
MOLECULE: N#CN1CCC(NS(=O)(=O)c2cccc(F)c2)C1 (configuration not stated)
activation (%): 0.986
--
MOLECULE: CCOc1cccc(CC(=O)N2CCc3c([nH]c4ccccc34)C2c2ccc(F)cc2)c1OCC (configuration not stated)
activation (%): 2.49
--
MOLECULE: Cc1ccccc1CNC(=O)CCCn1nc(C)c2sc3ccccc3c2c1=O
activation (%): 5.39
--
MOLECULE: Cc1ccc(CNC(=O)Cn2c(=O)ccc3cc(S(=O)(=O)N4CCCC4)ccc32)cc1
activation (%): -0.173
--
MOLECULE: Cc1ccc(OC(=O)CSc2nnc(-c3cccs3)o2)cc1
activation (%): 1.31
--
MOLECULE: N#C/C(=C\c1ccccc1F)c1nc2ccccc2c(=O)[nH]1
activation (%): 6.41
--
MOLECULE: Cc1ccc(CNS(=O)(=O)c2ccc(-c3cc(C(F)(F)F)on3)s2)cc1
activation (%): 0.651
--
MOLECULE: O=C(NCCN1C(=O)S/C(=C\c2cccnc2)C1=O)c1ccc(S(=O)(=O)N2CCCC2)cc1
activation (%): 1.07
--
MOLECULE: CSc1ccccc1-c1nnc(NC(=O)c2ccc3c(c2)OCCO3)o1
activation (%): 0.0799
--
MOLECULE: CCCCc1nn2c(=O)cc(COC(=O)c3ccc(NC(=O)c4ccccc4C)cc3)nc2s1
activation (%): 4.38
--
MOLECULE: Cc1cccc(NC(=O)Cn2c(C(F)(F)F)nc3ccccc32)c1C
activation (%): 2.74
--
MOLECULE: O=C(CN1C(=O)/C(=C/c2ccccc2F)Sc2ccccc21)NCc1cccnc1
activation (%): 4.38
--
MOLECULE: COc1c(F)c(F)c(C(=O)O)c(Nc2ccccc2C)c1F
activation (%): 1.04
--
MOLECULE: O=C(Nc1ccc2c(c1)OCO2)c1cc(-c2cccc(Cl)c2)on1
activation (%): -1.41
--
MOLECULE: CCOc1cccc2c1N[C@@H](c1ccc(C(=O)O)cc1)[C@H]1CC=C[C@@H]21
activation (%): 7.61
--
MOLECULE: O=C(CCc1ccccc1)Nc1ncc([N+](=O)[O-])s1
activation (%): 30.3
--
MOLECULE: CSc1ccc(CCNC(=O)c2ccc3c(c2)nc2n3CCOC2)cc1
activation (%): 0.926
--
MOLECULE: Cc1ccc(-c2nnc(Nc3cccc(Br)c3)c3ccccc23)cc1S(=O)(=O)NCC1CCCO1 (configuration not stated)
activation (%): 3.26
--
MOLECULE: Cc1ccc(C(=O)Nc2sc(Cc3ccc4c(c3)OCO4)c(C)c2C(N)=O)cc1
activation (%): -1
--
MOLECULE: COc1ccc(-c2nc3ccccc3s2)cc1NC(=O)COc1ccccc1C
activation (%): -0.142
--
MOLECULE: O=C(CCc1ccccc1)Nc1nn[nH]n1
activation (%): 3.14
--
MOLECULE: Cc1ccc(C)c(CN2CCC(CNC(=O)Nc3ccc(C)c(F)c3)CC2)c1
activation (%): 26.2
--
MOLECULE: COc1ccc(S(=O)(=O)c2c(Nc3ccc(C)cc3)sc(C(=O)c3ccc(C)cc3)c2N)cc1
activation (%): 56.2
--
MOLECULE: CCN(CC)c1ccc(NC(=O)Cn2nc3c(cc2=O)CCCC3)c(C)c1
activation (%): -0.284
--
MOLECULE: CN(c1ccccc1)c1ccc(/C=c2\s/c(=C(/C#N)C(=O)C(C)(C)C)n(Cc3ccco3)c2=O)cc1
activation (%): 86
--
MOLECULE: COc1ccc(Cl)cc1S(=O)(=O)Nc1cccc(C(=O)O)c1
activation (%): 2.88
--
MOLECULE: CCc1nc(-c2cc(S(=O)(=O)N3CCN(c4ccc(OC)cc4)CC3)ccc2OC)no1
activation (%): 4.75

* * *

Attribute: activation
- TEST TARGET: D(1A) dopamine receptor (Homo sapiens) (UniProt P21728)
- Sequence (P21728 whole entry, looked up): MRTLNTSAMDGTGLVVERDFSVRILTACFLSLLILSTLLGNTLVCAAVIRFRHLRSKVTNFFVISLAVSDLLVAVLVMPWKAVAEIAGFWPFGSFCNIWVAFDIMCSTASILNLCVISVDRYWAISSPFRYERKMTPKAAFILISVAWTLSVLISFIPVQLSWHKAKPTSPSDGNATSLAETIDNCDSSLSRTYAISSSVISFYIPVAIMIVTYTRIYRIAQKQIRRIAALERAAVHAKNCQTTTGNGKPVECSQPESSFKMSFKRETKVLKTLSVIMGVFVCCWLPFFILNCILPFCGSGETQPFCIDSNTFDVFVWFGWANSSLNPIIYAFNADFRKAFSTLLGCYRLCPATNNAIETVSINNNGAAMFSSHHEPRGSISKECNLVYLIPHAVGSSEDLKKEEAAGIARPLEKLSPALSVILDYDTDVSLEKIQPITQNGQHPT
- ASSAY NOTES: Allosteric Agonists of the Human D1 Dopamine Receptor: qHTS; note: 0% is about no effect
- CONDITIONS USED: HEK293 T-REx D1 cells, calcium flux, agonist mode; at 2 µM; hits give high values
- Experimental: NIH Chemical Genomics Center [NCGC] NIH Molecular Libraries Probe Centers Network [MLPCN] […] Freshly passaged cells are plated in 1536 well black, clear bottom plates at a density of 4000 cells/well in 3 ul of complete media containing 1x tetracycline inducer. […] Agonist read: A 10 cycle (1 second/cycle) baseline measurement is taken and then the FDSS online 1536 pintool delivers 23 nl of compound library (as well as dopamine controls) to the plate. […]
The whole screen tested about 360,000 compounds, of which about 3,700 (1%) were called active. The sample as a whole holds a higher share of actives than the screen did.

COMPOUND: CC1CCN(S(=O)(=O)c2ccc3c(c2)N(CC(=O)NCCc2ccccc2)C(=O)CO3)CC1
activation [%]: 1.33
--
COMPOUND: Cc1ccccc1N/C(SCc1ccc(Cl)cc1)=C(/C#N)C(N)=O
activation [%]: 3.17
--
COMPOUND: Cc1oc(-c2ccccc2)nc1Cn1c(SCc2cccc(C(F)(F)F)c2)nc2cccnc21
activation [%]: 3.89
--
COMPOUND: CCOc1cc(/C=C(\C#N)c2nc(-c3cccs3)c(NC(C)=O)s2)ccc1O
activation [%]: 115
--
COMPOUND: Cc1noc(/C=C/N(C)C)c1S(=O)(=O)N1CCCC(C(=O)Nc2cccc(F)c2)C1 (stereo not drawn)
activation [%]: 5.84
--
COMPOUND: O=C(NCc1nnc(C(=O)Nc2ccc(C(F)(F)F)cc2Cl)o1)c1ccccc1
activation [%]: -0.686
--
COMPOUND: Cc1ccc(NC(=O)c2cn3c4c(ccc(Cl)c4c2=O)OC(C)C3)cc1C (stereo not drawn)
activation [%]: 2.01
--
COMPOUND: O=C(NC1CC(=O)N(c2ccccc2)C1)c1ccco1 (stereo not drawn)
activation [%]: 2.23
--
COMPOUND: CCOc1ccccc1NC(=O)C1=C(C)Nc2ncnn2C1c1ccc(NC(C)=O)cc1 (stereo not drawn)
activation [%]: 1.04
--
COMPOUND: Cc1ccccc1NC(=S)NC(=O)Cc1ccc(Cl)cc1
activation [%]: 69.1
--
COMPOUND: O=C(NC(=S)Nc1ccc(Cl)cc1Cl)C1CC1
activation [%]: 1.23
--
COMPOUND: Cc1cc(C)c(NC(=O)CSc2nc3nccnc3c(=O)n2CCc2c[nH]c3ccccc23)c(C)c1
activation [%]: 2.34
--
COMPOUND: COc1ccc(NC(=O)N2CCCn3nc(C)cc32)cc1OC
activation [%]: -0.666
--
COMPOUND: COc1ccccc1Nc1c2c(nc3ccc(NC(=O)/C=C/c4cc(OC)c(OC)c(OC)c4)cc13)CCCC2
activation [%]: -0.5
--
COMPOUND: COc1ccc(C(=O)CSc2c(C(C)C)cnc3c2c(=O)n(C)c(=O)n3C)cc1
activation [%]: 2.45
--
COMPOUND: COC(=O)c1ccccc1NC(=O)CN(Cc1ccc(Cl)cc1)S(C)(=O)=O
activation [%]: 3.99
--
COMPOUND: COc1ccc(-n2c(C)nc3c(cnn3-c3ccc(F)cc3)c2=O)cc1
activation [%]: 9.13
--
COMPOUND: COc1ccc(-c2noc(CSc3nc4ccc(C)cc4[nH]3)n2)cc1
activation [%]: 5.23
--
COMPOUND: Cc1ccc(S(=O)(=O)NCCNC(C)c2ccc(Br)cc2)cc1 (stereo not drawn)
activation [%]: 6.77
--
COMPOUND: O=C(CCS(=O)(=O)c1ccccc1)N(Cc1cccnc1)c1nc2c(F)cccc2s1
activation [%]: 7.8
--
COMPOUND: Cc1cccc2sc(N(CCCN(C)C)C(=O)CCS(=O)(=O)c3ccccc3)nc12
activation [%]: 44.5
--
COMPOUND: CCc1ccc(-c2nn(-c3ccccc3)cc2CSC(=N)N)cc1
activation [%]: 47.5
--
COMPOUND: O=C(/C=C(O)/C=C/c1ccc(O)cc1)/C=C/c1ccc(O)cc1
activation [%]: 432
--
COMPOUND: Cn1c(=O)c(C(=O)O)nn(-c2ccccc2)c1=O
activation [%]: 1.73
--
COMPOUND: Cc1cc(C)c2oc(-c3cccc(NC(=O)c4cccc(F)c4)c3C)nc2c1
activation [%]: 1.24
--
COMPOUND: Cc1ccc(OCCNC(=O)CCNS(=O)(=O)c2ccc(Br)cc2)cc1
activation [%]: 74
--
COMPOUND: CCCn1c(=O)c(-c2ccccc2)c(O)c2ccccc21
activation [%]: 0.534
--
COMPOUND: O=C(Cc1ccc(Cl)cc1)NC(=S)Nc1ccccc1O
activation [%]: 35.4
--
COMPOUND: CN(C(=O)CN(CCO)CC(=O)N(C)C(C)(C)Cc1ccccc1)C(C)(C)Cc1ccccc1
activation [%]: 40.5
--
COMPOUND: CCOc1ccc(Br)cc1CSC(=N)N
activation [%]: 21.9
--
COMPOUND: CCOC(=O)c1ccc(CN(Cc2ccccc2)S(=O)(=O)c2ccc(Cl)cc2)cc1
activation [%]: 18.5
--
COMPOUND: Nc1cc(N2CCCCCC2)c2nonc2c1[N+](=O)[O-]
activation [%]: 34.1
--
COMPOUND: Cc1ccc(S(=O)(=O)N2[C@@H](c3ccccc3F)C(C(=O)O)=CC[C@H]2c2ccc(Cl)cc2)cc1
activation [%]: 3.48
--
COMPOUND: Cc1cc(C(=O)Nc2cccc(C(F)(F)F)c2)c2c(C)nn(-c3cccc(F)c3)c2n1
activation [%]: 19.5
--
COMPOUND: Cc1c(Nc2cc(N3CCCC(C)C3)c3nonc3c2[N+](=O)[O-])c(=O)n(-c2ccccc2)n1C (stereo not drawn)
activation [%]: -0.0536
--
COMPOUND: COC(=O)c1scc(-c2ccccc2)c1S(=O)(=O)Nc1ccccc1
activation [%]: 3.73
--
COMPOUND: CC(C)(C)C(=O)/C(C#N)=C/c1ccc(O)cc1
activation [%]: 6.88
--
COMPOUND: Cc1cccc(C(=O)Nc2ccc(-c3nc4ncccc4o3)cc2C)c1
activation [%]: 0.768
--
COMPOUND: CC(=O)n1c(C=Nc2ccccc2)c(O)c2ccccc21
activation [%]: 52.3
--
COMPOUND: COc1ccccc1CNC(=O)C(=O)NCC(c1cccs1)S(=O)(=O)c1cccs1 (stereo not drawn)
activation [%]: 7.48
--
COMPOUND: N=C(N)SCc1cccc2ccccc12
activation [%]: 47.6
--
COMPOUND: O=C(NCCCO)c1nn(-c2ccc(Cl)cc2)nc1CO
activation [%]: -0.511
--
COMPOUND: O=S(=O)(NC1CC1)c1ccc2c3c(cccc13)CC2
activation [%]: 2.42
